Biological target: HTRA1, Q92743
Sequence (Q92743 360-477): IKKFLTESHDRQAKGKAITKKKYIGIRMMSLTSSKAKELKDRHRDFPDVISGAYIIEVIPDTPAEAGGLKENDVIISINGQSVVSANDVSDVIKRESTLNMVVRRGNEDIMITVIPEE
Experiment: holdup assay
Parameters: key: below the threshold = too weak to quantify, mostly under pKd 3.1 to 4
Details: plain residues with an end cap or a label only (N-terminal biotin on a linker: ahx)
test-readout: pKd

Field request: pKd | item: RAVEEEESRF [PSCDBP, O60759] below the threshold

Field request: pKd | item: NRKREIFSNF [NHERF2, Q15599] below the threshold

Field request: pKd | item: PSASCAVTAA [PDLIM4, P50479;P50479-2] below the threshold

Field request: pKd | item: ESLLLGPSNF [SHROOM4, Q9ULL8] below the threshold
